Sourced from patent US20030068675

# target.desc: ZFP SBS#741 (synthetic)
# Sequence (chain, as listed by the source): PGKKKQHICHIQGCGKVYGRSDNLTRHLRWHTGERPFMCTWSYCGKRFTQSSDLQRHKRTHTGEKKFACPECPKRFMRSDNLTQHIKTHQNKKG
# test.details: EMSA
# condition.label: tags: MBP fusion
recorded.metric: Kd (nM)

AAGGCTGAGA (dsDNA) DNA 1: AAGGCTGAGA DNA 2: TCTCAGCCTT | 15
